Some compounds, each annotated with its measured IC50.
# targetOrSystem: EGFR (T790M) (Homo sapiens (Human), UniProt P00533, T790M)
# Sequence (P00533 25-1210 T790M): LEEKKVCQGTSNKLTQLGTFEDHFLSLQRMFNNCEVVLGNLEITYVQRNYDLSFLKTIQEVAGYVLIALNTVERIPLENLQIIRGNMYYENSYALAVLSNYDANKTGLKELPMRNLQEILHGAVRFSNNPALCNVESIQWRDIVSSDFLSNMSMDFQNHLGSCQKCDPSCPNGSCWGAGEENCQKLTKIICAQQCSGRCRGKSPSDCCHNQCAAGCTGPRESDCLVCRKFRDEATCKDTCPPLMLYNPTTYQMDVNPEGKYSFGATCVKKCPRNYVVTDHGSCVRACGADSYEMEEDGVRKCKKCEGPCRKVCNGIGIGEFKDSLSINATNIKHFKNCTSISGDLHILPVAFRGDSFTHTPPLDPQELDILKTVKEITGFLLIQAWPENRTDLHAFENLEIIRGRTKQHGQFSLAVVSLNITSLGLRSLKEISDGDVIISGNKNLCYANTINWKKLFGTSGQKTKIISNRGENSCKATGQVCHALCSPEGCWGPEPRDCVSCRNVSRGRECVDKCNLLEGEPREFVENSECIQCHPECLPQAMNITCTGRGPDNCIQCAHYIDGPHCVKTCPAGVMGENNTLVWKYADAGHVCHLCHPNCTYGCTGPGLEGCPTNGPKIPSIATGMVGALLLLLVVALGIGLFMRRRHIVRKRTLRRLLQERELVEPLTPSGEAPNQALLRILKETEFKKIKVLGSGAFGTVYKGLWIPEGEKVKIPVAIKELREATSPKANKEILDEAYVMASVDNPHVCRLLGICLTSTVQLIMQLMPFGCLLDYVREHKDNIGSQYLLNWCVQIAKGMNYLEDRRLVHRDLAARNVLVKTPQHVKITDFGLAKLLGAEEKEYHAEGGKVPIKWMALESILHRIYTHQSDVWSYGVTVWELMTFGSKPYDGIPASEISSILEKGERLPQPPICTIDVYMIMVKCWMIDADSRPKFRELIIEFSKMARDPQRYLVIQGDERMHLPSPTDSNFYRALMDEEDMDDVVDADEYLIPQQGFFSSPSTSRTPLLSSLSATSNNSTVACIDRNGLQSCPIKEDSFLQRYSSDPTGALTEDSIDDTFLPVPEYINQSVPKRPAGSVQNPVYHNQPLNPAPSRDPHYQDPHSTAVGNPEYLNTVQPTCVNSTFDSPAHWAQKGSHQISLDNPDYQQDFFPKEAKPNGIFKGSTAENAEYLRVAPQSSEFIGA
# procedureText: Kinase-Glo luminescent kinase assay, EGFR tyrosine kinase inhibitory activity (T790M)

compound: CCOc1cc2ncnc(Nc3ccc(C)cc3)c2c2c1OCCO2
IC50: < 100 nM
//
compound: COCCOc1cc2ncnc(Nc3ccc(Cl)c([N+](=O)[O-])c3)c2c2c1OCCO2
IC50: < 1000 nM
//
compound: C#Cc1cccc(Nc2ncnc3cc(OC(C)COC)c4c(c23)OCCO4)c1 (centres unmarked)
IC50: < 300 nM
//
compound: COc1ccc(Nc2ncnc3cc4c(cc23)N(CCCN2CCOCC2)C(=O)CO4)cc1OC
IC50: < 1000 nM
//
compound: C#Cc1cccc(Nc2ncnc3cc(OC(C)C)c4c(c23)OCCO4)c1
IC50: < 50 nM
//
compound: CCOC(C)Oc1cc2ncnc(Nc3ccc(C)c([N+](=O)[O-])c3)c2c2c1OCCO2 (centres unmarked)
IC50: < 1000 nM
//
compound: Cc1ccc(Nc2ncnc3cc4c(cc23)N(CCCN2CCOCC2)C(=O)CO4)cc1Cl
IC50: < 1000 nM
//
compound: Fc1cc(Nc2ncnc3cc(OC4CCOC4)c4c(c23)OCCO4)ccc1Cl (centres unmarked)
IC50: < 100 nM
//
compound: CCOC(C)Oc1cc2ncnc(Nc3ccc(Cl)c([N+](=O)[O-])c3)c2c2c1OCCO2 (centres unmarked)
IC50: < 1000 nM
//
compound: C#Cc1cccc(Nc2ncnc3cc(OCC4CCCO4)c4c(c23)OCCO4)c1 (centres unmarked)
IC50: < 100 nM
//
compound: C#Cc1cccc(Nc2ncnc3cc(OCCOC)c4c(c23)OCCO4)c1
IC50: < 50 nM

* * *

# targetOrSystem: EGFR (T790M) (Homo sapiens (Human), UniProt P00533, T790M)
# procedureText: Kinase-Glo luminescent kinase assay, EGFR tyrosine kinase inhibitory activity (T790M)
testReadout: IC50

compound: COc1cccc(Nc2ncnc3cc4c(cc23)N(CCCN2CCOCC2)C(=O)CO4)c1
targetOrSystem: EGFR (T790M) (Homo sapiens (Human), UniProt P00533, T790M)
testReadout: IC50
result: < 1 µM

compound: Cc1ccc(Nc2ncnc3cc(OC(C)C)c4c(c23)OCCO4)cc1C#N
targetOrSystem: EGFR (T790M) (Homo sapiens (Human), UniProt P00533, T790M)
testReadout: IC50
result: < 1 µM

compound: COCCOc1cc2ncnc(Nc3ccc(F)c(C#N)c3)c2c2c1OCCO2
targetOrSystem: EGFR (T790M) (Homo sapiens (Human), UniProt P00533, T790M)
testReadout: IC50
result: < 1 µM

compound: C#Cc1cccc(Nc2ncnc3cc(OC)c4c(c23)OCCO4)c1
targetOrSystem: EGFR (T790M) (Homo sapiens (Human), UniProt P00533, T790M)
testReadout: IC50
result: < 1 µM

compound: COCCOc1cc2ncnc(Nc3ccc(C)c([N+](=O)[O-])c3)c2c2c1OCCO2
targetOrSystem: EGFR (T790M) (Homo sapiens (Human), UniProt P00533, T790M)
testReadout: IC50
result: < 1 µM

compound: COCCOc1cc2ncnc(Nc3ccc(F)cc3)c2c2c1OCCO2
targetOrSystem: EGFR (T790M) (Homo sapiens (Human), UniProt P00533, T790M)
testReadout: IC50
result: < 1 µM

compound: CCOC(C)Oc1cc2ncnc(Nc3ccc(F)c([N+](=O)[O-])c3)c2c2c1OCCO2 (stereo not shown)
targetOrSystem: EGFR (T790M) (Homo sapiens (Human), UniProt P00533, T790M)
testReadout: IC50
result: < 0.3 µM

compound: C#Cc1cccc(Nc2ncnc3cc(OC4CCOC4)c4c(c23)OCCO4)c1 (stereo not shown)
targetOrSystem: EGFR (T790M) (Homo sapiens (Human), UniProt P00533, T790M)
testReadout: IC50
result: < 0.3 µM

compound: CC(C)Oc1cc2ncnc(Nc3ccc(F)c(Cl)c3)c2c2c1OCCO2
targetOrSystem: EGFR (T790M) (Homo sapiens (Human), UniProt P00533, T790M)
testReadout: IC50
result: < 0.05 µM

compound: C#Cc1cccc(Nc2ncnc3cc(OC4CCOCC4)c4c(c23)OCCO4)c1
targetOrSystem: EGFR (T790M) (Homo sapiens (Human), UniProt P00533, T790M)
testReadout: IC50
result: < 1 µM
